- Test system: Staphylococcus epidermidis
- Measurement Protocol: Antibacterial activity against methicillin-sensitive Staphylococcus epidermidis ATCC 12228 assessed as growth inhibition after 18 hrs by agar dilution method
- Type: functional
- Condition Summary: ATCC 12228, 18 h
Measured Property: MIC (µg/mL)
Express the result in µg/mL but write the number alone.

I have this molecule here, CC[C@@H]1[C@@H](C)O[C@@](OC)([C@@H](C)[C@H](O)[C@H](C)[C@H]2OC(=O)/C=C/C=C/[C@H](C)[C@@H]([C@@H](C)[C@@H](O)[C@H](C)[C@@]3(O)C[C@@H](O[C@H]4C[C@H](O)[C@H](O)[C@H](C)O4)[C@H](CC)[C@@H](C)O3)OC(=O)/C=C/C=C/[C@@H]2C)C[C@H]1O[C@H]1C[C@H](O)[C@H](O)[C@H](C)O1 , and I need its recorded MIC.
2

====

- Test system: Enterococcus faecalis
- Measurement Protocol: Antibacterial activity against vancomycin-resistant Enterococcus faecalis R6512 assessed as growth inhibition after 18 hrs by agar dilution method
- Assay type: functional
- Condition Summary: R6512, 18 h
Below, each entry is listed alongside its reported MIC.
Give the value, in units of µg/mL, as a plain number.

Smiles Code	Reported Measurement
CC[C@@H]1[C@@H](C)OC([C@@H](C)[C@H](O)[C@H](C)[C@H]2OC(=O)/C=C/C=C/[C@H](C)[C@@H]([C@@H](C)[C@@H](O)[C@H](C)[C@@]3(O)C[C@@H](O[C@H]4C[C@H](O)[C@H](O)[C@H](C)O4)[C@H](CC)[C@@H](C)O3)OC(=O)/C=C/C=C/[C@@H]2C)=C[C@H]1O[C@H]1C[C@H](O)[C@H](O)[C@H](C)O1	4

For CC[C@@H]1[C@@H](C)O[C@@](O)([C@@H](C)[C@H](O)[C@H](C)[C@H]2OC(=O)/C=C/C=C/[C@H](C)[C@@H]([C@@H](C)[C@@H](O)[C@H](C)[C@@]3(O)C[C@@H](O[C@H]4C[C@H](O)[C@H](O)[C@H](C)O4)[C@H](C)[C@@H](C)O3)OC(=O)/C=C/C=C/[C@@H]2C)C[C@H]1O[C@H]1C[C@H](O)[C@H](O)[C@H](C)O1 , what is its reported MIC?
2

====

MIC for assorted molecules
- Tested on: Staphylococcus epidermidis
- Measurement Protocol: Antibacterial activity against methicillin-resistant Staphylococcus epidermidis 09-3 assessed as growth inhibition after 18 hrs by agar dilution method
- Type: functional
- Condition Summary: 09-3, 18 h

Smiles Code	MIC
CC[C@@H]1[C@@H](C)OC([C@@H](C)[C@H](O)[C@H](C)[C@H]2OC(=O)/C=C/C=C/[C@H](C)[C@@H]([C@@H](C)[C@@H](O)[C@H](C)[C@@]3(O)C[C@@H](O[C@H]4C[C@H](O)[C@H](O)[C@H](C)O4)[C@H](CC)[C@@H](C)O3)OC(=O)/C=C/C=C/[C@@H]2C)=C[C@H]1O[C@H]1C[C@H](O)[C@H](O)[C@H](C)O1	> 64 µg/mL

Which MIC value belongs to Cc1onc(-c2ccccc2)c1C(=O)N[C@@H]1C(=O)N2[C@@H]1SC(C)(C)[C@@H]2C(=O)O ?
> 256 µg/mL

Input CC[C@H]1OC(=O)[C@H](C)[C@@H](O[C@H]2C[C@@](C)(OC)[C@@H](O)[C@H](C)O2)[C@H](C)[C@@H](O[C@@H]2O[C@H](C)C[C@H](N(C)C)[C@H]2O)[C@](C)(O)C[C@@H](C)C(=O)[C@H](C)[C@@H](O)[C@]1(C)O
> 256 µg/mL

Further, for CC[C@H]1OC(=O)[C@H](C)[C@@H](O[C@H]2C[C@@](C)(OC)[C@@H](O)[C@H](C)O2)[C@H](C)[C@@H](O[C@@H]2O[C@H](C)C[C@H](N(C)C)[C@H]2O)[C@](C)(O)C[C@@H](C)CN(C)[C@H](C)[C@@H](O)[C@]1(C)O ?
> 256 µg/mL

====

The following compounds are listed with their measured MIC values.
- System: Staphylococcus aureus
- Measurement Protocol: Antibacterial activity against methicillin-resistant Staphylococcus aureus 09-13 assessed as growth inhibition after 18 hrs by agar dilution method
- Type: functional
- Condition Summary: 09-13, 18 h

Answered examples (2):
Compound	Reported Measurement
CC[C@H]1OC(=O)[C@H](C)[C@@H](O[C@H]2C[C@@](C)(OC)[C@@H](O)[C@H](C)O2)[C@H](C)[C@@H](O[C@@H]2O[C@H](C)C[C@H](N(C)C)[C@H]2O)[C@](C)(O)C[C@@H](C)C(=O)[C@H](C)[C@@H](O)[C@]1(C)O [ERYTHROMYCIN]	> 256 µg/mL
Cc1onc(-c2ccccc2)c1C(=O)N[C@@H]1C(=O)N2[C@@H]1SC(C)(C)[C@@H]2C(=O)O [OXACILLIN]	> 256 µg/mL

Moving on to the next compound.
Which MIC is reported for this compound? CC[C@H]1OC(=O)[C@H](C)[C@@H](O[C@H]2C[C@@](C)(OC)[C@@H](O)[C@H](C)O2)[C@H](C)[C@@H](O[C@@H]2O[C@H](C)C[C@H](N(C)C)[C@H]2O)[C@](C)(O)C[C@@H](C)CN(C)[C@H](C)[C@@H](O)[C@]1(C)O [AZITHROMYCIN]
> 256 µg/mL

====

- System: Staphylococcus aureus
- Measurement Protocol: Antibacterial activity against methicillin-resistant Staphylococcus aureus R6101 assessed as growth inhibition after 18 hrs by agar dilution method
- Assay type: functional
- Condition Summary: R6101, 18 h
Measured Property: MIC

Smiles Code	Target System	MIC
CC[C@@H]1[C@@H](C)OC([C@@H](C)[C@H](O)[C@H](C)[C@H]2OC(=O)/C=C/C=C/[C@H](C)[C@@H]([C@@H](C)[C@@H](O)[C@H](C)[C@@]3(O)C[C@@H](O[C@H]4C[C@H](O)[C@H](O)[C@H](C)O4)[C@H](CC)[C@@H](C)O3)OC(=O)/C=C/C=C/[C@@H]2C)=C[C@H]1O[C@H]1C[C@H](O)[C@H](O)[C@H](C)O1	Staphylococcus aureus	> 64 mg/L

Looking for the measured MIC of Cc1onc(-c2ccccc2)c1C(=O)N[C@@H]1C(=O)N2[C@@H]1SC(C)(C)[C@@H]2C(=O)O , can you help?
> 256 mg/L

One more compound: CC[C@H]1OC(=O)[C@H](C)[C@@H](O[C@H]2C[C@@](C)(OC)[C@@H](O)[C@H](C)O2)[C@H](C)[C@@H](O[C@@H]2O[C@H](C)C[C@H](N(C)C)[C@H]2O)[C@](C)(O)C[C@@H](C)CN(C)[C@H](C)[C@@H](O)[C@]1(C)O
> 256 mg/L
